Test system: SK-MEL-2
Test: NCI tumour cell line growth inhibition, 48 h
Active and inactive are the calls of the source. Rule as the data show it: active = GI50 up to about 1.1 µM and inactive = higher.
Endpoint: GI50

{"Molecule": "CCC(CO)Nc1nc2c(c(=O)n(C)c(=O)n2C)n1CCO (stereo unspecified)", "Result": "> 100 µM (inactive)"}
{"Molecule": "CC(=O)Nc1nnc(S(=O)(=O)NC(=S)Nc2ccc(Cl)cc2)s1", "Result": "> 100 µM (inactive)"}
{"Molecule": "COc1ccc(/C(Cl)=C(\\C=O)c2ccc([N+](=O)[O-])cc2)cc1OC", "Result": "21 µM (inactive)"}
{"Molecule": "O=C(O)c1cccc(OCCO)c1", "Result": "> 100 µM (inactive)"}
{"Molecule": "COC(=O)C(Cc1c[nH]c2ccccc12)NC1=Nc2ccncc2S(=O)(=O)N1c1cccc(OC(C)C)c1 (stereo unspecified)", "Result": "39.7 µM (inactive)"}
{"Molecule": "COc1ccc2c(c1)[n+]([O-])c(C(N)=O)c(N)[n+]2[O-]", "Result": "> 100 µM (inactive)"}

###

System: OVCAR-8
Test: NCI tumour cell line growth inhibition, 48 h
The source made the active and inactive calls. Rule as the data show it: active = GI50 up to about 1.1 µM and inactive = higher. Where a SMILES comes first, the peptide text is derived from it. The star is where a group is joined. Boc = CC(C)(C)OC(=O)*
Outcome codes: active, inactive

{"Compound": "CC(=O)[C@@]1(O)CC[C@H]2[C@@H]3C[C@H](C)C4=CC(=O)C=C[C@]4(C)[C@@]3(F)[C@@H](O)C[C@@]21C", "Label": "inactive"}
{"Compound": "CCCCOP(=O)(OCCCC)C(NS(=O)(=O)c1ccccc1)(C(=O)OCC)C(F)(F)F (centres undefined)", "Label": "inactive"}
{"Compound": "CC(C)(C)OC(=O)NC(Cc1ccc(O)cc1)C(=O)N1CCCC1C(=O)O (stereo not drawn) (Boc-Tyr-Pro-OH; configuration not given here)", "Label": "inactive"}
{"Compound": "CC(C)(O)CCc1ccc(O)c2c(=O)c3c(O)c4c(cc3oc12)O[C@H]1OC=C[C@@]41O", "Label": "active"}
{"Compound": "COc1cc(C=O)cc(O)c1O", "Label": "inactive"}
{"Compound": "NC1=NC(=O)C(CC(=O)Nc2ccc([N+](=O)[O-])cc2[N+](=O)[O-])S1 (centres undefined)", "Label": "inactive"}
{"Compound": "COc1ccc2c(c1)[C@@]13CCN4CC5=CCO[C@H]6CC(=O)N2[C@H]1[C@H]6[C@H]5C[C@H]43", "Label": "inactive"}
{"Compound": "Clc1ccc(C2SCc3nc4ccccc4n32)cc1 (centres undefined)", "Label": "inactive"}
{"Compound": "Cc1ccc2c(c1)nc1n2C(c2c(F)cccc2F)SC1 (centres undefined)", "Label": "inactive"}
{"Compound": "O=C(/C=C/c1ccccc1)CCN1CCOCC1", "Label": "inactive"}
{"Compound": "CCCCc1cc2c(cc1O)CCC1C2CC[C@@]2(C)C1CC[C@@H]2O (some centres undefined)", "Label": "inactive"}
{"Compound": "N#CN=C(NCc1ccccc1)NCc1ccccc1", "Label": "inactive"}
{"Compound": "O=C1Sc2ccc(Br)cc2C(=O)Sc2ccccc21", "Label": "inactive"}
{"Compound": "CC1CCC(C(=O)O)(C(Br)C(=O)O)CC1 (centres undefined)", "Label": "inactive"}
{"Compound": "CC(=O)NC1C(OCc2ccccc2)OC(CO)C(O)C1OCC(=O)N1CCCC1C(=O)NC(CCC(=O)NCCCCCNc1c2ccccc2nc2cccc([N+](=O)[O-])c12)C(N)=O (centres undefined)", "Label": "active"}
{"Compound": "C[N+](C)(CCO)CCN1c2ccccc2Sc2ccccc21", "Label": "inactive"}
{"Compound": "Cc1cc(Cl)ccc1N1C(=O)C(=O)C(c2nc3ccccc3s2)/C(=N\\NC(=O)c2ccccc2O)C1=O (centres undefined)", "Label": "inactive"}
{"Compound": "Brc1ccc(/N=C/C=C(\\Nc2ccc(Br)cc2)C23CC4CC(CC(C4)C2)C3)cc1", "Label": "inactive"}
{"Compound": "CCN(CC)CCCC(C)Nc1ccnc2cc(Cl)ccc12 (centres undefined) [CHLOROQUINE PHOSPHATE]", "Label": "inactive"}

Data credit: ChEMBL document CHEMBL1201862
